Source: ChEMBL document CHEMBL5214982

target: UDP-N-acetylglucosamine 1-carboxyvinyltransferase (Escherichia coli K-12); assay: Inhibition of wild type his tagged Escherichia coli K12 MurA at 20 uM using UDP-N-acetylglucosamine as substrate preincubated with substrate for 30 mins prior to compound addition for 15 mins followed by DTT and PEP addition and measured after 30 mins by malachite green based microplate reader analysis relative to control; details: time 45.0 min

# Compound, inhibition [%]
measured = [
    ("CCOC(=O)C1=C(O)C(=O)N(c2nc3ccc(Cl)cc3s2)C1c1ccc(Cl)cc1 (centres undefined)", 34),
    ("CCOC(=O)C1=C(O)C(=O)N(c2nc3c(Cl)cccc3s2)C1c1ccc(-c2ccccc2)cc1 (centres undefined)", 73),
    ("CCOC(=O)C1=C(O)C(=O)N(c2nc3ccc(C)cc3s2)C1c1ccc(O)cc1 (centres undefined)", 23),
    ("CCOC(=O)C1=C(O)C(=O)N(c2nc3ccc(C)cc3s2)C1c1cccc2ccccc12 (centres undefined)", 54),
    ("CCOC(=O)C1=C(O)C(=O)N(c2nc3ccc(C)cc3s2)C1c1cccnc1 (centres undefined)", 29),
    ("CCOC(=O)C1=C(O)C(=O)N(c2nc3ccc(C)cc3s2)C1c1ccc(-c2ccc(C(F)(F)F)cc2Cl)o1 (centres undefined)", 94),
    ("CCOC(=O)C1=C(O)C(=O)N(c2nc3cc(C)c(C)cc3s2)C1c1ccc(-c2ccccc2)cc1 (centres undefined)", 85),
    ("CCOC(=O)C1=C(O)C(=O)N(c2nc3ccc(C)cc3s2)C1c1ccc(-c2ccccc2)o1 (centres undefined)", 37),
    ("CCOC(=O)C1=C(O)C(=O)N(c2nc3ccc(C)cc3s2)C1c1ccc2ccccc2c1 (centres undefined)", 44),
    ("CCOC(=O)C1=C(O)C(=O)N(c2nc3ccc(C)cc3s2)C1c1cc(-c2ccccc2)cs1 (centres undefined)", 72),
    ("CCOC(=O)C1=C(O)C(=O)N(c2nc3ccc(C)cc3s2)C1c1ccc(-c2ccc(Cl)cc2)o1 (centres undefined)", 75),
    ("CCOC(=O)C1=C(O)C(=O)N(c2nc3c(s2)CCCC3)C1c1ccccc1 (centres undefined)", 14),
    ("COC(=O)C1=C(O)C(=O)N(c2nc3ccc(C)cc3s2)C1c1ccc(-c2ccc(Cl)cc2)o1 (centres undefined)", 59),
    ("CCOC(=O)C1=C(O)C(=O)N(c2nc3c(OC)cccc3s2)C1c1ccc(-c2ccccc2)cc1 (centres undefined)", 31),
    ("CCOC(=O)C1=C(O)C(=O)N(c2nc3ccc(Cl)cc3s2)C1c1ccccc1 (centres undefined)", 14),
    ("CCOC(=O)C1=C(O)C(=O)N(c2nc3ccc(C)cc3s2)C1c1ccc(-c2ccccc2)cc1 (centres undefined)", 76),
    ("CCOC(=O)C1=C(O)C(=O)N(c2nc3ccc(C(F)(F)F)cc3s2)C1c1ccc(-c2ccccc2)cc1 (centres undefined)", 70),
    ("CCOC(=O)C1=C(O)C(=O)N(c2nc3c(F)cc(F)cc3s2)C1c1ccc(-c2ccccc2)cc1 (centres undefined)", 76),
    ("CCOC(=O)C1=C(O)C(=O)N(c2nc3c(C)cccc3s2)C1c1ccccc1 (centres undefined)", 0),
]
